As shown below, each of these compounds has a reported normalised indicator fluorescence value.
System: hsa-mir-221 loop
Assay: normalised indicator fluorescence (fraction of RNA + indicator signal without compound); higher = less displacement of indicator (weaker competition)
Settings: compound concentration: 5 uM; 30 min; indicator: TO-PRO-3 0.5 uM; RNA concentration: 0.5 uM
MEASURE NAME: normalised indicator fluorescence

O=c1ccc2ccc(O)c(O)c2o1: 0.965
CC(=O)O[C@H]1C[C@@]2(C)[C@@H](C[C@@H](O)[C@H]3[C@@]4(C)CC[C@@H](O)[C@@H](C)[C@@H]4CC[C@@]32C)/C1=C(\CCC=C(C)C)C(=O)O [Fusidine]: 1.02
CC(=O)O[C@H]1C[C@@]2(C)[C@@H](C[C@@H](O)[C@H]3[C@@]4(C)CC[C@@H](O)[C@@H](C)[C@@H]4CC[C@@]32C)/C1=C(\CCC=C(C)C)C(=O)O [Sodium fusidate]: 1.03
COc1ccc([C@@H]2OC[C@H]3[C@@H]2CO[C@@H]3c2ccc(O[C@@H]3O[C@H](CO)[C@@H](O)[C@H](O)[C@H]3O)c(OC)c2)cc1OC: 1.04

* * *

A collection of compounds and their measured normalised indicator fluorescence
System: hsa-mir-6850 loop
Test: normalised indicator fluorescence (fraction of RNA + indicator signal without compound); higher = less displacement of indicator (weaker competition)
Details: compound concentration: 5 uM; 30 min; indicator: TO-PRO-3 0.5 uM; RNA concentration: 0.5 uM
Counter-ions that a name gives are not always drawn.
MEASURE NAME: normalised indicator fluorescence

CCc1cc(C(N)=S)ccn1 [Ethinamide]: 1.05
CC(C)c1cc(-c2n[nH]c(=O)n2-c2ccc3c(ccn3C)c2)c(O)cc1O: 1
O=c1c(O)c(-c2ccccc2)oc2cc(O)cc(O)c12: 1.07
[I-].[K+] [Potassium iodide]: 1.07
C[C@@H]1O[C@@H](O[C@@H]2[C@@H](O)[C@H](OCCc3ccc(O)c(O)c3)O[C@H](CO)[C@H]2OC(=O)/C=C/c2ccc(O)c(O)c2)[C@H](O)[C@H](O)[C@H]1O [Verbascoside]: 1.02
N#Cc1c(NC(=O)c2cccc3ccccc23)sc2c1CCCC2: 1.02
COc1ccc(C2CC(=O)c3c(O)cc(OC4OC(COC5OC(C)C(O)C(O)C5O)C(O)C(O)C4O)cc3O2)cc1OC (stereo not given): 1.07
CC(C)(O)[C@@H]1CC[C@](C)([C@H]2[C@@H](O)C[C@@]3(C)[C@@H]4C[C@H](O)[C@H]5C(C)(C)[C@@H](O[C@@H]6OC[C@@H](O)[C@H](O)[C@H]6O[C@@H]6O[C@H](CO)[C@@H](O)[C@H](O)[C@H]6O)CC[C@@]56C[C@@]46CC[C@]23C)O1 [Astragaloside III]: 1.11
COC(=O)C1=CC[C@@]23CC[C@@H]([C@@](C)(/C=C/C=C(\C)C(=O)O)OC2=O)[C@@]3(OC(C)=O)CC1: 1.03
Cc1oncc1C(=O)Nc1ccc(C(F)(F)F)cc1 [Leflunomide]: 1.01
OC[C@H]1O[C@@H](Oc2ccc(O)cc2)[C@H](O)[C@@H](O)[C@@H]1O: 1.07
CC(C)c1cc(C(C)C)c(CC(=O)NS(=O)(=O)Oc2c(C(C)C)cccc2C(C)C)c(C(C)C)c1: 0.948
CN(C)CCCN1c2ccccc2CCc2ccc(Cl)cc21 [Clomipramine hydrochloride]: 1.08
O=c1cc(-c2ccccc2)oc2cc(O)c(O)c(O)c12: 1.05
CC(=O)CCCCn1c(=O)c2c(ncn2C)n(C)c1=O: 0.997
Cc1cccc(CC(=O)N2CCc3c2ccc(-c2cn(C)c4ncnc(N)c24)c3F)n1: 0.993
NNC(=O)c1ccncc1: 1.09
CC(C)N(CCCCOCC(=O)NS(C)(=O)=O)c1cnc(-c2ccccc2)c(-c2ccccc2)n1: 1.09
Oc1cc(O)c2c(c1)O[C@H](c1ccc(O)c(O)c1)[C@@H](O)C2 [(+)-Catechin Hydrate]: 1.09
O=C1CCc2ccccc2C1: 1.08
